A collection of binders and their measured kon
# system_name: T1, Extracellular domain of human PD1 (huPD1-ECD) (human, UniProt Q15116 25-169, biotinylated in the ligand inhibition assay (sites not given))
# T1 construct: Expressed with a hexahistidine tag or as Fc fusion; also called biotinylated PD-1
# assay_procedure: SPR ProteOn, captured mAb, huPD1-ECD analyte
measurement_name: kon

INSERT INTO assay_data (binder, assay_value) VALUES
  ('PD1B162 (antibody, human IgG2, kappa, V domains shown, IgG2sigma/kappa; VH 42, VL 52; also called PD1H131/PD1L67) VH: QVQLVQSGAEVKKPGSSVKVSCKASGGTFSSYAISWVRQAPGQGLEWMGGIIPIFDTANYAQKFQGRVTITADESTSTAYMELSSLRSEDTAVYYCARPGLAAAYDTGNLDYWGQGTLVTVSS VL: EIVLTQSPATLSLSPGERATLSCRASQSVDSYLAWYQQKPGQAPRLLIYDASNRATGIPARFSGSGSGTDFTLTISSLEPEDFAVYYCQQREYWPLTFGQGTKVEIKR', '649000 M⁻¹ s⁻¹'),
  ('PD1B175 (antibody, V domains shown, Tested as IgG2sigma; also called PD1H163/PH9L3) VH: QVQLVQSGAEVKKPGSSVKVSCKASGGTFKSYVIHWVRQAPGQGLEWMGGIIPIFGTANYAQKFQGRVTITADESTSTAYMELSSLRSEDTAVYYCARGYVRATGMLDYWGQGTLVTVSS VL: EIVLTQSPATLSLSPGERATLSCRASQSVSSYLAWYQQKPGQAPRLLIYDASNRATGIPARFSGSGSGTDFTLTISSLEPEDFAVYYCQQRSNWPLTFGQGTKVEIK', '422000 M⁻¹ s⁻¹'),
  ('PD1B192 (antibody, human IgG2, kappa, V domains shown, IgG2sigma/kappa; VH 43, VL 57; also called PD1H3/PD1L133) VH: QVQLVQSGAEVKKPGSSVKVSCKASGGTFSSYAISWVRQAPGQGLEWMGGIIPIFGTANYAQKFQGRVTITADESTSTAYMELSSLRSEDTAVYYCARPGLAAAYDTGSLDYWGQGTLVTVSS VL: EIVLTQSPATLSLSPGERATLSCRASQSVDSYLAWYQQKPGQAPRLLIHDASNRATGIPARFSGSGSGTDFTLTISSLEPEDFAVYYCQQRNYWPLTFGQGTKVEIKR', '541000 M⁻¹ s⁻¹'),
  ('PD1B187 (antibody, V domains shown, Tested as IgG2sigma; also called PD1H3/PD1L148) VH: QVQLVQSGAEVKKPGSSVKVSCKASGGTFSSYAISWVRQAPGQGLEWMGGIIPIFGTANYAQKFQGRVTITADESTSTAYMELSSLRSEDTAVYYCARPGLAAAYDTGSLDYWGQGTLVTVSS VL: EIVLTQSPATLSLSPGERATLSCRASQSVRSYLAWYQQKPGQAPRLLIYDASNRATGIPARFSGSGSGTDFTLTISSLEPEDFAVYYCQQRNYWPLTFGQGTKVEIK', '535000 M⁻¹ s⁻¹'),
  ('PD1B70 (antibody, V domains shown, Tested as IgG2sigma/kappa; also called PD1H107/PH9L3) VH: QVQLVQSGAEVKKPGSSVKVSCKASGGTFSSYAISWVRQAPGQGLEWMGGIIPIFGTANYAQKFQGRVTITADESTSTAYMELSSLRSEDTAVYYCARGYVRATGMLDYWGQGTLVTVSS VL: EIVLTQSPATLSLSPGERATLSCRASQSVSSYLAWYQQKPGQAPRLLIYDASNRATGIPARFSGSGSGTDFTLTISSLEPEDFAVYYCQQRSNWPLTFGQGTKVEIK', '415000 M⁻¹ s⁻¹'),
  ('PD1B184 (antibody, human IgG2, kappa, V domains shown, IgG2sigma/kappa; VH 43, VL 50; also called PD1H3/PD1L128) VH: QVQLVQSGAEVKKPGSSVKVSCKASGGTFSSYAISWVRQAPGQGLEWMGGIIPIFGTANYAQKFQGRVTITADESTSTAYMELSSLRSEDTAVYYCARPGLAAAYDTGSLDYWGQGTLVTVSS VL: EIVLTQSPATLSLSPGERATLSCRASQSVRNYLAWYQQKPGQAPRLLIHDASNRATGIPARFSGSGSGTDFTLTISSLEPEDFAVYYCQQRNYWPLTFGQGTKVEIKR', '445000 M⁻¹ s⁻¹'),
  ('PD1B160 (antibody, human IgG2, kappa, V domains shown, IgG2sigma/kappa; VH 42, VL 51; also called PD1H131/PD1L101) VH: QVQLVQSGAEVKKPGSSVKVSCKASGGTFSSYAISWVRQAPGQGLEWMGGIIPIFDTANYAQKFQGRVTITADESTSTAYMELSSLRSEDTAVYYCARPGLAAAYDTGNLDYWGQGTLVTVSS VL: EIVLTQSPATLSLSPGERATLSCRASQSVDSYLAWYQQKPGQAPRLLIKDASDRATGIPARFSGSGSGTDFTLTISSLEPEDFAVYYCQQRGNWPLTFGQGTKVEIKR', '540000 M⁻¹ s⁻¹'),
  ('PD1B183 (antibody, human IgG2, kappa, V domains shown, IgG2sigma/kappa; VH 43, VL 54; also called PD1H3/PD1L109) VH: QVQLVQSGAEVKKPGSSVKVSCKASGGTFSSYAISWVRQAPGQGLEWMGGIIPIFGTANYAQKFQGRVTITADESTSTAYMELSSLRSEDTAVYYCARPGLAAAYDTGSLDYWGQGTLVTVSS VL: EIVLTQSPATLSLSPGERATLSCRASQSVSSYLAWYQQKPGQAPRLLIKDASNRATGIPARFSGSGSGTDFTLTISSLEPEDFAVYYCQQRGYWPLTFGQGTKVEIKR', '527000 M⁻¹ s⁻¹'),
  ('PD1B149 (antibody, human IgG2, kappa, V domains shown, IgG2sigma/kappa; VH 41, VL 50; also called PD1H24/PD1L128) VH: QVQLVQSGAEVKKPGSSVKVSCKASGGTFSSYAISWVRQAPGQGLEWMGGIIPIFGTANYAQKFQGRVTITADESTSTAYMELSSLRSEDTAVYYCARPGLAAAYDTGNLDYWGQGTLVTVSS VL: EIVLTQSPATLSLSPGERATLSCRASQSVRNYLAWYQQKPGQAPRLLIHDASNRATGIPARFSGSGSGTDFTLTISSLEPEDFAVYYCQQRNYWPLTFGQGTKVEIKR', '532000 M⁻¹ s⁻¹'),
  ('PD1B185 (antibody, human IgG2, kappa, V domains shown, IgG2sigma/kappa; VH 43, VL 55; also called PD1H3/PD1L132) VH: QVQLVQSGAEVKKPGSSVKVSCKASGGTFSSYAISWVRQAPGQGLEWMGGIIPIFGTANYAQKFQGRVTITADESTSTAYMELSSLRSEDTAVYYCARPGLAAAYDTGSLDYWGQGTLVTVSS VL: EIVLTQSPATLSLSPGERATLSCRASQSVRNYLAWYQQKPGQAPRLLIYDASDRATGIPARFSGSGSGTDFTLTISSLEPEDFAVYYCQQRWNWPLTFGQGTKVEIKR', '585000 M⁻¹ s⁻¹');

Values from patent US20210277110A1
